- ASSAY NAME: Biodistribution of 99mTc complexes in rats
- Type: in vivo, Australian Albino Wistar Rats
- CONDITIONS: rat, pancreas, rats, 5 min, read-out: biodistribution pancreas
Hi! Just check whether tissue uptake at 5 min is below 0.5 %ID/g. Below gives Criterion met, equal or above gives Criterion not met.

O=C(O)CN(CCN(CC(=O)O)CC(=O)Nc1ccccc1O)CC(=O)Nc1ccccc1O: Criterion met
O=C(O)CN(CCN(CC(=O)O)CC(=O)Nc1ccc(Cl)cc1O)CC(=O)Nc1ccc(Cl)cc1O: Criterion not met

Q) For this molecule, is tissue uptake at 5 min lower than 0.5 %ID/g? Nc1ccc(O)c(NC(=O)CN(CCN(CC(=O)O)CC(=O)Nc2cc(N)ccc2O)CC(=O)O)c1
A) Criterion not met

Q) Hello, I'm reviewing records and need to know if tissue uptake at 5 min of CC(C)(C)c1ccc(O)c(NC(=O)CN(CCN(CC(=O)O)CC(=O)Nc2cc(C(C)(C)C)ccc2O)CC(=O)O)c1 is below 0.5 %ID/g. Could you check?
A) Criterion met

Q) Please state whether tissue uptake at 5 min is below 0.5 %ID/g for O=C(O)CN(CCN(CC(=O)O)CC(=O)Nc1cc([N+](=O)[O-])ccc1O)CC(=O)Nc1cc([N+](=O)[O-])ccc1O
A) Criterion met

* * *

- ASSAY NAME: Biodistribution of 99mTc complexes in rats
- Type: in vivo, Australian Albino Wistar Rats
- CONDITIONS: rat, heart, rats, 3 min, read-out: biodistribution heart
ASSAY ENDPOINT: tissue uptake at 0.05 h (%ID/g)
Only the number, expressed in %ID/g, is required.

Worked examples follow.
Nc1ccc(O)c(NC(=O)CN(CCN(CC(=O)O)CC(=O)Nc2cc(N)ccc2O)CC(=O)O)c1 [Compound 5]: 1.24
O=C(O)CN(CCN(CC(=O)O)CC(=O)Nc1cc([N+](=O)[O-])ccc1O)CC(=O)Nc1cc([N+](=O)[O-])ccc1O [Compound 3]: 0.55
CC(C)(C)c1ccc(O)c(NC(=O)CN(CCN(CC(=O)O)CC(=O)Nc2cc(C(C)(C)C)ccc2O)CC(=O)O)c1 [Compound 4]: 0.65

Q) For the compound O=C(O)CN(CCN(CC(=O)O)CC(=O)Nc1ccccc1O)CC(=O)Nc1ccccc1O [Compound 1] , report tissue uptake at 0.05 h.
A) 0.46

Q) // fetch tissue uptake at 0.05 h given entry O=C(O)CN(CCN(CC(=O)O)CC(=O)Nc1ccc(Cl)cc1O)CC(=O)Nc1ccc(Cl)cc1O [Compound 2]
A) 0.46

* * *

- ASSAY NAME: Biodistribution of 99mTc complexes in mice
- Type: in vivo, Balb/c mice
- CONDITIONS: 1 min
Label class 1 for high-side biodistribution muscle (at or above 20 % Injected dose) and class 0 for low-side biodistribution muscle (below it).

A selection of reference data follows.
Nc1ccc(O)c(NC(=O)CN(CCN(CC(=O)O)CC(=O)Nc2cc(N)ccc2O)CC(=O)O)c1: class 1
CC(C)(C)c1ccc(O)c(NC(=O)CN(CCN(CC(=O)O)CC(=O)Nc2cc(C(C)(C)C)ccc2O)CC(=O)O)c1: class 0
Cc1cc(C)c(O)c(NC(=O)CN(CCN(CC(=O)O)CC(=O)Nc2cc(C)cc(C)c2O)CC(=O)O)c1: class 0

Consider the additional compound presented here.
Q) Entry O=C(O)CN(CCN(CC(=O)O)CC(=O)Nc1ccccc1O)CC(=O)Nc1ccccc1O : is its biodistribution muscle no less than 20 % Injected dose?
A) class 1

* * *

- ASSAY NAME: Biodistribution of 99mTc complexes in mice
- Type: in vivo, Balb/c mice
- CONDITIONS: 5 min
ASSAY ENDPOINT: biodistribution stomach (% Injected dose)
Just the number in % Injected dose, nothing appended.

CC(C)(C)c1ccc(O)c(NC(=O)CN(CCN(CC(=O)O)CC(=O)Nc2cc(C(C)(C)C)ccc2O)CC(=O)O)c1: 3.96

Q) Answer with the recorded biodistribution stomach of O=C(O)CN(CCN(CC(=O)O)CC(=O)Nc1ccc(Cl)cc1O)CC(=O)Nc1ccc(Cl)cc1O only.
A) 0.6

Q) Supply biodistribution stomach value. Item: O=C(O)CN(CCN(CC(=O)O)CC(=O)Nc1ccccc1O)CC(=O)Nc1ccccc1O
A) 1.02

Q) Input Cc1cc(C)c(O)c(NC(=O)CN(CCN(CC(=O)O)CC(=O)Nc2cc(C)cc(C)c2O)CC(=O)O)c1 , output reported biodistribution stomach.
A) 5.42

* * *

- ASSAY NAME: Biodistribution of compound No. 6 in mice (Table 6)
- Format: in vivo, Balb/c mice
- CONDITIONS: mouse, total git, 3 min, read-out: biodistribution tot GIT
ASSAY ENDPOINT: tissue uptake at 0.05 h (%ID/g)
Note: unit %ID/g is implicit; provide only the numeric part.

Q) Give tissue uptake at 0.05 h for the following compound: Cc1cc(C)c(O)c(NC(=O)CN(CCN(CC(=O)O)CC(=O)Nc2cc(C)cc(C)c2O)CC(=O)O)c1
A) 1.03

* * *

- ASSAY NAME: Biodistribution of 99mTc complexes in rats
- Assay type: in vivo, Australian Albino Wistar Rats
- CONDITIONS: rat, eyes, rats, 1 min, read-out: biodistribution eyes
ASSAY ENDPOINT: tissue uptake at 1 min (%ID/g)
Quick reminder: number only, in %ID/g, skip the unit.

Look over these answered cases.
O=C(O)CN(CCN(CC(=O)O)CC(=O)Nc1ccccc1O)CC(=O)Nc1ccccc1O [Compound 1]: 0.17
O=C(O)CN(CCN(CC(=O)O)CC(=O)Nc1cc([N+](=O)[O-])ccc1O)CC(=O)Nc1cc([N+](=O)[O-])ccc1O [Compound 3]: 0.23
CC(C)(C)c1ccc(O)c(NC(=O)CN(CCN(CC(=O)O)CC(=O)Nc2cc(C(C)(C)C)ccc2O)CC(=O)O)c1 [Compound 4]: 0.19

Q) For the compound Nc1ccc(O)c(NC(=O)CN(CCN(CC(=O)O)CC(=O)Nc2cc(N)ccc2O)CC(=O)O)c1 [Compound 5] , report tissue uptake at 1 min.
A) 0.23

Q) Supply recorded tissue uptake at 1 min for O=C(O)CN(CCN(CC(=O)O)CC(=O)Nc1ccc(Cl)cc1O)CC(=O)Nc1ccc(Cl)cc1O [Compound 2] here.
A) 0.15

* * *

- ASSAY NAME: Biodistribution of 99mTc complexes in mice
- Format: in vivo, Balb/c mice
- CONDITIONS: 10 min
ASSAY ENDPOINT: biodistribution GIT
I'd appreciate it if you included the unit after the number.

CC(C)(C)c1ccc(O)c(NC(=O)CN(CCN(CC(=O)O)CC(=O)Nc2cc(C(C)(C)C)ccc2O)CC(=O)O)c1 [Compound 4]: 33.63 % Injected dose
Cc1cc(C)c(O)c(NC(=O)CN(CCN(CC(=O)O)CC(=O)Nc2cc(C)cc(C)c2O)CC(=O)O)c1 [Compound 6]: 45.71 % Injected dose
O=C(O)CN(CCN(CC(=O)O)CC(=O)Nc1ccccc1O)CC(=O)Nc1ccccc1O [Compound 1]: 12.35 % Injected dose

Q) Answer with the recorded biodistribution GIT for the compound listed here: O=C(O)CN(CCN(CC(=O)O)CC(=O)Nc1ccc(Cl)cc1O)CC(=O)Nc1ccc(Cl)cc1O [Compound 2]
A) 8.11 % Injected dose

* * *

- ASSAY NAME: Biodistribution of 67Ga complexes in mice
- Type: in vivo, balb/c mice
- CONDITIONS: 1 min
Form field: biodistribution muscle (one value per entry).
Provide only the numeric value, understood in % ID.

O=C(O)CN(CCN(CC(=O)O)CC(=O)Nc1ccc(Cl)cc1O)CC(=O)Nc1ccc(Cl)cc1O: 20.55

Q) Recall and state the measured biodistribution muscle for CC(C)(C)c1ccc(O)c(NC(=O)CN(CCN(CC(=O)O)CC(=O)Nc2cc(C(C)(C)C)ccc2O)CC(=O)O)c1 .
A) 11.34

Q) Using the record for Cc1cc(C)c(O)c(NC(=O)CN(CCN(CC(=O)O)CC(=O)Nc2cc(C)cc(C)c2O)CC(=O)O)c1 , state its measured biodistribution muscle.
A) 17.93

Q) Supply biodistribution muscle value. Item: O=C(O)CN(CCN(CC(=O)O)CC(=O)Nc1ccccc1O)CC(=O)Nc1ccccc1O
A) 22.75

* * *

- ASSAY NAME: Biodistribution of 67Ga complexes in mice
- Assay type: in vivo, balb/c mice
- CONDITIONS: 10 min
Each entry below carries its reported biodistribution muscle.
Please answer using the number first and the unit second.

Q) Tell me its biodistribution muscle given O=C(O)CN(CCN(CC(=O)O)CC(=O)Nc1ccc(Cl)cc1O)CC(=O)Nc1ccc(Cl)cc1O as the entry.
A) 2.00 % ID

Q) Answer with reported biodistribution muscle of O=C(O)CN(CCN(CC(=O)O)CC(=O)Nc1ccccc1O)CC(=O)Nc1ccccc1O
A) 26.13 % ID

Q) Give biodistribution muscle for the following compound: Cc1cc(C)c(O)c(NC(=O)CN(CCN(CC(=O)O)CC(=O)Nc2cc(C)cc(C)c2O)CC(=O)O)c1
A) 4.37 % ID

Q) Quick one: give measured biodistribution muscle for CC(C)(C)c1ccc(O)c(NC(=O)CN(CCN(CC(=O)O)CC(=O)Nc2cc(C(C)(C)C)ccc2O)CC(=O)O)c1
A) 0.65 % ID
